Target: BK channels (mSlo1) (Mus musculus)
Type: cell-based
Settings: IC50 (Hill fit), equilibration 0 mV, 300 µM Ca^2+ (Po ∼0.65)
readout-label: pIC50
Value format note: pIC50 is -log10 of concentration (mol/L); just state the number.

Noted for CC(C)(O)[C@H]1O[C@H]2CC[C@@]3(C)[C@@](O)(CC[C@H]4Cc5c([nH]c6ccccc56)[C@@]43C)C2=CC1=O [paxilline] : its pIC50 reads 7.23

###

Target: BK channels (mSlo1) (Mus musculus, UniProt Q08460)
Sequence (Q08460 whole entry): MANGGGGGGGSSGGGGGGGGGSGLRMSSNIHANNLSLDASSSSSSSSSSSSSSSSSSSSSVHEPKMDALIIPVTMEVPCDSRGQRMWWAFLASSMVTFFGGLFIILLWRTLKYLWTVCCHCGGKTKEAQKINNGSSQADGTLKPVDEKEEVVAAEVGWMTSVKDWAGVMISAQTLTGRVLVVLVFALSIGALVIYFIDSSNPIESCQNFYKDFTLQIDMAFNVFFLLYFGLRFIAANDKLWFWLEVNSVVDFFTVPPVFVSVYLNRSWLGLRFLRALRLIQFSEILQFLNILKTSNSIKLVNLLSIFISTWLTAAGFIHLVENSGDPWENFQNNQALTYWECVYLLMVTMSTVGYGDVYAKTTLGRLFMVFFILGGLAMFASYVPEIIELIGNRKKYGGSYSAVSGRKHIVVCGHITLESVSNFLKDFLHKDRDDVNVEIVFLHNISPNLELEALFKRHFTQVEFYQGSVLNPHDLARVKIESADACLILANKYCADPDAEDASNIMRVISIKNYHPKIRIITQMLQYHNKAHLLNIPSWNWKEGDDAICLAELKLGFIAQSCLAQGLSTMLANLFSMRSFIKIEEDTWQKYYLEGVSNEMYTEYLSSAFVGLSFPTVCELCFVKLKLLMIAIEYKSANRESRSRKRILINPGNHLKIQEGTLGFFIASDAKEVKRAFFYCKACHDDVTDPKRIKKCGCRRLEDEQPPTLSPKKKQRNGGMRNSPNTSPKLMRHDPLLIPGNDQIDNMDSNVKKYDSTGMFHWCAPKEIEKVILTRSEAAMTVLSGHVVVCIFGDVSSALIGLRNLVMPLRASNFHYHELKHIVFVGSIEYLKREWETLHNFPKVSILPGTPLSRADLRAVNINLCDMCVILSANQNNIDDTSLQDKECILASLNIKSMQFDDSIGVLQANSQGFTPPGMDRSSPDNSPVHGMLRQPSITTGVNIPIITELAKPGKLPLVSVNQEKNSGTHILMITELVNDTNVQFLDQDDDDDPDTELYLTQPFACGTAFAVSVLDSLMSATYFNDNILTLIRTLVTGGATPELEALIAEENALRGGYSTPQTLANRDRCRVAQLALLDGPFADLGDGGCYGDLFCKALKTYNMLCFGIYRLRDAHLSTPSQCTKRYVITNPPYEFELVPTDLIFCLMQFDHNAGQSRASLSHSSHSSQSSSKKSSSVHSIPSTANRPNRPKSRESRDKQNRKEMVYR
Format: cell-based
Details: IC50 (Hill fit), equilibration 70 mV, 300 µM Ca^2+ (Po ∼0.89)
readout-label: pIC50
Bear in mind: pIC50 is minus log10 of a mol/L concentration; give just that figure.

The molecule listed as CC(C)(O)[C@H]1O[C@H]2CC[C@@]3(C)[C@@](O)(CC[C@H]4Cc5c([nH]c6ccccc56)[C@@]43C)C2=CC1=O has a reported pIC50 of 5.27

###

Molecular target: BK channels (mSlo1) (Mus musculus, UniProt Q08460)
Test: NPo measurements at negative potentials in macropatches
Format: cell-based
Settings: IC50 for reduction in normalized NPo, −80 mV, Hill fit with n = 1
readout-label: pIC50
# pIC50 = -log10(concentration in molar units)

Short answer on BK channels (mSlo1) (Mus musculus, UniProt Q08460) for CC(C)(O)[C@H]1O[C@H]2CC[C@@]3(C)[C@@](O)(CC[C@H]4Cc5c([nH]c6ccccc56)[C@@]43C)C2=CC1=O [paxilline] , pIC50: 8.26

###

Target: BK channels (mSlo1) (Mus musculus)
Test: Kinetics of onset of and recovery from paxilline inhibition of BK current
readout-label: Kd (nM)
Supply the numeric figure in nM, leaving out any unit text.

Input CC(C)(O)[C@H]1O[C@H]2CC[C@@]3(C)[C@@](O)(CC[C@H]4Cc5c([nH]c6ccccc56)[C@@]43C)C2=CC1=O . Output Kd: 12.9

###

Target: BK channels (mSlo1) (Mus musculus)
Type: cell-based
Details: IC50 for paxilline, as maximal Po was approached
readout-label: IC50

Summary: CC(C)(O)[C@H]1O[C@H]2CC[C@@]3(C)[C@@](O)(CC[C@H]4Cc5c([nH]c6ccccc56)[C@@]43C)C2=CC1=O , BK channels (mSlo1) (Mus musculus), IC50 = ~10 µM

###

Molecular target: BK channels (mSlo1) (Mus musculus, UniProt Q08460)
Type: cell-based
Settings: IC50 (Hill fit), equilibration 40 mV, 300 µM Ca^2+ (Po ∼0.83)
readout-label: IC50 (nM)
Could you give me the number in nM? Just the number is fine.

// field: IC50; key: CC(C)(O)[C@H]1O[C@H]2CC[C@@]3(C)[C@@](O)(CC[C@H]4Cc5c([nH]c6ccccc56)[C@@]43C)C2=CC1=O ; value = 470
